B1: Ankyrin-3, residues 4094 to 4171; numbered along this chain, Q12955 (parent)
chain: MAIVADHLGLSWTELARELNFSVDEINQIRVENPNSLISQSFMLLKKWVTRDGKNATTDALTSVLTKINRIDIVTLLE

# Variants of: B1
# Assay Summary: abundance fitness (aPCA) (normalised: wild type 0, dead -1); higher = more abundant; growth selection in yeast, the domain comes from the species named
# Cond: Homo sapiens
Returns one of Condition met or Condition not met; Condition met when abundance fitness is >= -0.2.

[
  {
    "Changes": "A60V",
    "Category Label": "Condition met"
  },
  {
    "Changes": "A16D",
    "Category Label": "Condition not met"
  },
  {
    "Changes": "T58Q",
    "Category Label": "Condition met"
  },
  {
    "Changes": "A60F",
    "Category Label": "Condition met"
  },
  {
    "Changes": "F21P",
    "Category Label": "Condition not met"
  },
  {
    "Changes": "S39K",
    "Category Label": "Condition met"
  },
  {
    "Changes": "V4L",
    "Category Label": "Condition not met"
  },
  {
    "Changes": "Q40K",
    "Category Label": "Condition not met"
  },
  {
    "Changes": "L76E",
    "Category Label": "Condition met"
  },
  {
    "Changes": "D6N",
    "Category Label": "Condition met"
  },
  {
    "Changes": "K54F",
    "Category Label": "Condition met"
  }
]

Value source: the Human Domainome abundance scans (Beltran et al. 2025)
